tested on: KM12; assay: NCI tumour cell line growth inhibition, 48 h
Active and inactive are the calls of the source. Cut-off read from the data, not from the text of the source: active = GI50 up to about 1.1 µM and inactive = higher.
ASSAY METRIC: GI50

[[record]]
compound = "O=C(N/C(=C\\c1ccc(F)cc1)c1nc2ccccc2[nH]1)c1ccccc1"
target_or_system = "KM12"
result = "> 100 µM (inactive)"

[[record]]
compound = "O=C/C=C/c1ccco1"
target_or_system = "KM12"
result = "> 100 µM (inactive)"

[[record]]
compound = "COC(=O)CCc1c(Cc2ccc[nH]2)[nH]c(C(=O)OCc2ccccc2)c1C"
target_or_system = "KM12"
result = "16.3 µM (inactive)"

[[record]]
compound = "O=c1c(C(c2ccc([N+](=O)[O-])cc2)c2c(O)c3ccccc3n(-c3ccccc3)c2=O)c(O)c2ccccc2n1-c1ccccc1"
target_or_system = "KM12"
result = "17.7 µM (inactive)"

[[record]]
compound = "COc1ccc(C(=O)OC2C=COC(C)C2OC(=O)c2ccc(OC)cc2)cc1 (stereo not drawn)"
target_or_system = "KM12"
result = "19.1 µM (inactive)"

[[record]]
compound = "CC(C)(C)OC(=O)NCC(=O)N1CCN(C(=O)CNC(=O)OC(C)(C)C)CC1"
target_or_system = "KM12"
result = "> 100 µM (inactive)"

[[record]]
compound = "CC1=CCCC2C1(C)CCC(C)C2(C)Cc1cc(O)ccc1O (stereo not drawn)"
target_or_system = "KM12"
result = "5.94 µM (inactive)"

[[record]]
compound = "COc1cc(C(C)c2cc3c(cc2OCCNC(=O)COc2cc4c(cc2C(C)c2cc(OC)c(OC)c(OC)c2)OCO4)OCO3)cc(OC)c1OC (stereo not drawn)"
target_or_system = "KM12"
result = "> 100 µM (inactive)"


Hey, just so you know, these numbers are from ChEMBL document CHEMBL1201862.
